These entries and their values trace back to patent US20260034119A1.

Test: Mouse brain tissue binding
Format: in vitro ADME
Details: mouse, brain tissue, replicate R2, read-out: % Bound R2 (converted)
READOUT TYPE: fraction unbound

[[record]]
smiles = "COc1ccc2[nH]cc(CCN3CCCC3)c2c1F"
observed = 0.193


* * *

Target: 5-HT1A (Homo sapiens, UniProt P08908)
Sequence (P08908 whole entry): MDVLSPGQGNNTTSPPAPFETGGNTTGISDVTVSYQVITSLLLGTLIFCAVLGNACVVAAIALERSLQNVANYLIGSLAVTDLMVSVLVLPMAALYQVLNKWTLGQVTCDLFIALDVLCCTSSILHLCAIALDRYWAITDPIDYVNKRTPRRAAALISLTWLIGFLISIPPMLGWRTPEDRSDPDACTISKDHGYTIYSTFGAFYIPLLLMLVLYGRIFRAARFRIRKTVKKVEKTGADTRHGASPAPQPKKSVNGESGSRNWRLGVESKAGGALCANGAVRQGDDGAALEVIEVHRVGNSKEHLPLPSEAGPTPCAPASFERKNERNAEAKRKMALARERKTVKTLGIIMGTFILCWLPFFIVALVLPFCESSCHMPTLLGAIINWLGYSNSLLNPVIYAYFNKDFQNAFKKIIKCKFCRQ
Experiment: BRET signaling assay: 5-HT1A-mediated activation of heterotrimeric Gi1 (TRUPATH, HEK293-T)
Conditions: EC50 (nM) 5-HT1A BRET Gi1
READOUT TYPE: EC50

[[record]]
compound = "COc1ccc2[nH]cc(CCN(C)C)c2c1F [Compound 25]"
observed = "1.77 nM"

